# Experimental protocol: Quantitative High-Throughput drug screen in 47 multiple myeloma cell lines against the NCATS MIPE library collection: KMS12BM_JCRB cell viability assay (AID 1918971); also: nearly all actives have a fitted effect of over 35% in size
# Condition label: KMS12BM myeloma viability, CellTiter-Glo ATP, 48 h; series mostly up to 45.8 µM
# Description: PI: Beverly A. Mock Ph.D. Laboratory of Cancer Biology and Genetics, Center for Cancer Research, National Cancer Institute, National Institute of Health, Bethesda, Maryland […] 5; Detector; 425V; Luminescence; Viewlux PerkinElmer. […] 1. […] Briefly, the corresponding myeloma cell lines were screened in 1,536-well plates with 500 cells, 5-uL per well for inhibition of cell viability (assessed by measuring ATP levels with CellTiterGlo). […]
Records with an inconclusive call do not appear. Active and inactive are the calls of the source. Calls follow the shape of the dose curve; as a rule, active = well fitted cell-killing curve with a large enough effect; inconclusive = small, poorly fitted or top-dose-only effect, or effect the other way; inactive = no such curve, though single readings can be large or run the other way.
Respond with a class label; see y = active, n = inactive

CCNC(=O)[C@H]1O[C@@H](n2cnc3c(N)nc(NCCc4ccc(CCC(=O)O)cc4)nc32)[C@H](O)[C@H]1O; y
O=C(O)CCC=CCC[C@@H]1[C@H](N2CCCCC2)[C@@H](O)C[C@@H]1OCc1ccc(-c2ccccc2)cc1; n
COc1cc(CNC(=O)CCCCC=CC(C)C)ccc1O; n
C[C@@H]1O[C@@H](O[C@H]2CC[C@@]3(C)[C@H](CC[C@@H]4[C@H]3C[C@@H](O)[C@]3(C)[C@@H](C5=CC(=O)OC5)CC[C@]43O)C2)C[C@H](O)[C@@H]1O[C@H]1C[C@H](O)[C@H](O[C@H]2C[C@H](O)[C@@H](O)[C@@H](C)O2)[C@H](C)O1 (stereo in doubt); y
CC(C)(O)CC(=O)NCCn1ccc2ncnc(Nc3ccc(Oc4cccc(C(F)(F)F)c4)c(Cl)c3)c21; y
N[C@@H](CC(=O)N1CCn2c(nnc2C(F)(F)F)C1)Cc1cc(F)c(F)cc1F; n

IN: Kindly provide the recorded test outcome for the following compound: CN1[C@H]2CC[C@H]1CC(OC(=O)c1c[nH]c3ccccc13)C2 (some centres not stated)
OUT: n

* * *

Catalogue of compounds with associated max response
# Tested on: NIH3T3
# Experimental protocol: Cytotoxic Profiling of Annotated Libraries Using Quantitative High-Throughput Screening (AID 1296008); also: nearly all actives have a fitted effect of over 60% in size; as to max response: % is scaled to controls: 0 for no effect and ±100 for the full control effect
# Condition label: Five cell lines viability, CellTiter-Glo ATP luminescence, 48-72 h; active compounds read low
Records with an inconclusive call do not appear.
Could you give me the number in %? Just the number is fine.

Would you please look over these solved cases?
COc1nccc(-c2c(-c3ccc(F)cc3)ncn2C2CCC(O)CC2)n1 (configuration not stated); -1.87
O=C(c1ccc(C(=O)N2CCC(N3CCCC3)CC2)c(Nc2ccccc2)c1)N1CCC(N2CCCC2)CC1; -1.45
C#CCN(C)CC1=Cc2ccccc2Oc2ccccc21; -28.1
Cn1c(=O)c(-c2c(Cl)cccc2Cl)cc2cnc(Nc3cccc(C(=O)O)c3)nc21; 3.27
C=CC[N+]1([C@H]2C[C@H]3[C@@H]4CC[C@H]5C[C@H](O)[C@@H](N6CCOCC6)C[C@]5(C)[C@@H]4CC[C@]3(C)[C@H]2OC(C)=O)CCCC1; 4.84

IN: Item COc1ccc2c(c1)CC[C@H]1[C@@H]2CC[C@]2(C)[C@@H](NCCCCCCN3C(=O)C=CC3=O)CC[C@H]12 : provide max response
OUT: -1.24

IN: Item CC(C)=CCCC(C)=CCCC(C)=CCCC(C)=CCCC(C)=CCCC(C)=CCCC(C)=CCCC(C)=CCCC(C)=CCO : provide max response
OUT: -3.52

IN: Item O=C(Nc1ccccc1)Nc1ccc(-c2ccc(C(=O)[C@H]3CCC[C@H]3C(=O)O)cc2)cc1 : provide max response
OUT: 3.03

* * *

# Test system: CRL-7250
# Experimental protocol: Cytotoxic Profiling of Annotated Libraries Using Quantitative High-Throughput Screening (AID 1296008); also: nearly all actives have a fitted effect of over 60% in size; as to max response: % is scaled to controls: 0 for no effect and ±100 for the full control effect
# Condition label: Five cell lines viability, CellTiter-Glo ATP luminescence, 48-72 h; active compounds read low
Records with an inconclusive call do not appear.
Catalogue of compounds with associated max response
Could you give me the number in %? Just the number is fine.

C#CCN(C)CC1=Cc2ccccc2Oc2ccccc21; -16.4
CN(C)CCOc1ccc(C(=C(CCCl)c2ccccc2)c2ccccc2)cc1; -7.14
N#CC(c1ccc(Cl)cc1)c1c(Cl)cc(-n2ncc(=O)[nH]c2=O)cc1Cl (stereo unspecified); -3.43
Cc1c(-c2cccc3c(CCCOc4cccc5ccccc45)c(C(=O)O)n(Cc4cccnc4)c23)c(COc2ccc(N3CCN([S+](=O)([O-])N(C)C)CC3)cc2)nn1C; -2.89
O=C1C(CCC(O)c2ccc(F)cc2)C(c2ccc(O)cc2)N1c1ccc(F)cc1 (stereo unspecified); -5.06

IN: Item Cc1ccccc1C(C(=O)NC1CCCCC1)N(C(=O)CNc1ccc(C#N)cc1)c1cccc(F)c1 (stereo unspecified) : provide max response
OUT: 4.34

* * *

# Test system: NIH3T3
# Experimental protocol: Cytotoxic Profiling of Annotated Libraries Using Quantitative High-Throughput Screening (AID 1296008); also: nearly all actives have a fitted effect of over 60% in size
# Condition label: Five cell lines viability, CellTiter-Glo ATP luminescence, 48-72 h
Inconclusive results are not listed. The source made the active and inactive calls. Calls follow the shape of the dose curve; as a rule, active = well fitted inhibition curve with a large enough effect; inconclusive = small, poorly fitted or top-dose-only effect; inactive = flat fitted curve, though single readings scatter.
Respond with a class label; see 1 (active), 0 (inactive)

// known answers, use as guide
CC[C@H](NC(=O)[C@H](C)NC)C(=O)N1C[C@@H](O)C[C@H]1Cc1c(-c2[nH]c3cc(F)ccc3c2C[C@H]2C[C@H](O)CN2C(=O)[C@H](CC)NC(=O)[C@H](C)NC)[nH]c2cc(F)ccc12; 0
Cn1c(=O)c(-c2c(Cl)cccc2Cl)cc2cnc(Nc3cccc(C(=O)O)c3)nc21; 0
NC1(C(=O)N[C@@H](CCO)c2ccc(Cl)cc2)CCN(c2ncnc3[nH]ccc23)CC1; 0
CCc1cc(-c2n[nH]c(C)c2-c2ccc3c(c2)OCCO3)c(O)cc1O; 1
Nc1nc(Cl)nc2c1ncn2[C@@H]1O[C@H](CO)[C@@H](O)[C@H]1F; 1

IN: Kindly provide the recorded test outcome for the following compound: CN1CCN2c3ncccc3Cc3ccccc3C2C1 (centres undefined)
OUT: 0

IN: Kindly provide the recorded test outcome for the following compound: CC(NCCc1ccc(O)cc1)C(O)c1ccc(O)cc1 (centres undefined)
OUT: 0

IN: Kindly provide the recorded test outcome for the following compound: COc1cc(C=CC(=O)O)ccc1O
OUT: 0

IN: Kindly provide the recorded test outcome for the following compound: COc1ccnc(CS(=O)c2nc3ccc(OC(F)F)cc3[nH]2)c1OC (centres undefined)
OUT: 0

* * *

# Experimental protocol: Quantitative High-Throughput drug screen in 47 multiple myeloma cell lines against the NCATS MIPE library collection: ARD_JJKsccE7 cell viability assay (AID 1918929;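 as to viability: 100% = DMSO-only wells and 0% = media-only wells without cells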)
# Condition label: ARD myeloma cell line viability, CellTiter-Glo, 48 h; series mostly up to 45.8 µM
Inconclusive results are not listed. Calls of active or inactive are those of the source. Calls follow the shape of the dose curve; as a rule, active = well fitted cell-killing curve with a large enough effect; inconclusive = small, poorly fitted or top-dose-only effect, or effect the other way; inactive = no such curve, though single readings can be large or run the other way.
Respond with a class label; see active, inactive

O=C1NC(=O)C(c2cnc3ccccn23)=C1c1cn2c3c(cccc13)CN(C(=O)N1CCOCC1)CC2; active
COc1c(C)c2c(c(O)c1CC=C(C)CCC(=O)OCCN1CCOCC1)C(=O)OC2; active

Let's switch to this molecule now.
IN: Kindly provide the recorded test outcome for the following molecule: CN1CCC[C@H]1CCO[C@](C)(c1ccccc1)c1ccc(Cl)cc1
OUT: inactive

* * *

# Experimental protocol: qHTS of pediatric cancer cell lines to identify multiple opportunities for drug repurposing: Primary screen for U-2 OS cells (AID 1347096); also: nearly all actives have a fitted effect of over 50% in size
# Condition label: U-2 OS viability, CellTiter-Glo luminescence, 48 h; series mostly up to 46 µM
# Experimental: Drug repurposing or repositioning has been offered as a strategy for drug development in oncology programs. […] [1] Shen, M et al. Quantitative high-throughput phenotypic screening of pediatric cancer cell lines identifies multiple opportunities for drug repurposing. […] Cells were assayed in growth media at a density of 500-1,000 cells/well. […] After a 15 min incubation at room temperature, samples were analyzed for luminescence intensity using a ViewLux High-throughput CCD imager equipped with clear filters.
Records with an inconclusive call do not appear. Activity calls are given as the source filed them. Calls follow the shape of the dose curve; as a rule, active = well fitted cell-killing curve with a large enough effect; inconclusive = small, poorly fitted or top-dose-only effect; inactive = flat fitted curve, though single readings scatter.
Respond with a class label; see active, inactive

NC(=O)c1nnn(Cc2cc(Cl)c(C(=O)c3ccc(Cl)cc3)c(Cl)c2)c1N; inactive
Nc1ccc(-c2ccc3ncc4ccc(=O)n(-c5cccc(C(F)(F)F)c5)c4c3c2)cn1; active
OC[C@H]1O[C@@H](OCCc2ccc(O)cc2)[C@H](O)[C@@H](O)[C@H]1O; inactive
CC1(C)CC(=O)c2c(C(F)(F)F)nn(-c3ccc(C(N)=O)c(NC4CCC(O)CC4)c3)c2C1 (centres undefined); inactive
CN(C)CCN(C)C(=O)c1ccc(NC(=O)Nc2ccc(-c3nc(N4CCOCC4)c4ccn(CC(F)(F)F)c4n3)cc2)cc1; active
CC1C(=O)OC2C(O)C34C5CC(C(C)(C)C)C36C(OC(=O)C6O)OC4(C(=O)O5)C12O (centres undefined); inactive
Cc1cnc(CNC(=O)c2c(=O)c3ccc(N4CCCN(C)CC4)nc3n3c2sc2ccccc23)cn1; inactive
COc1nccc(-c2c(-c3ccc(F)cc3)ncn2C2CCC(O)CC2)n1 (centres undefined); inactive
O=c1cc(-c2ccc(O)c(O)c2)oc2cc(O)cc(O)c12; inactive
CN(C)N=Nc1nc[nH]c1C(N)=O; inactive

IN: Kindly provide the recorded test outcome for the following molecule: CC1(C)OC2CC3C4CC(F)C5=CC(=O)C=CC5(C)C4C(O)CC3(C)[C@]2(C(=O)CO)O1 (some centres undefined)
OUT: inactive

IN: Kindly provide the recorded test outcome for the following molecule: COc1cc2nccc(Oc3ccc(NC(=O)Nc4cc(C)on4)c(Cl)c3)c2cc1OC
OUT: active

IN: Kindly provide the recorded test outcome for the following molecule: O=C1C(c2c(O)[nH]c3ccccc23)=Nc2ccccc21
OUT: inactive

IN: Kindly provide the recorded test outcome for the following molecule: COc1cc([C@H]2Oc3cc([C@H]4Oc5cc(O)cc(O)c5C(=O)[C@H]4O)ccc3O[C@H]2CO)ccc1O
OUT: inactive

IN: Kindly provide the recorded test outcome for the following molecule: O=C(CC12CC3CC(CC(C3)C1)C2)Nc1cccc2nc(NCCNCCO)ccc12
OUT: inactive

IN: Kindly provide the recorded test outcome for the following molecule: COc1ccc2nc3cc(Cl)ccc3c(Nc3cc(CN4CCCC4)c(O)c(CN4CCCC4)c3)c2n1
OUT: inactive

IN: Kindly provide the recorded test outcome for the following molecule: CON(C)C(=O)N1N=C(c2cc(F)ccc2F)S[C@]1(CCCN)c1ccccc1
OUT: inactive

IN: Kindly provide the recorded test outcome for the following molecule: C[C@@]1(C(=O)Nc2ccc(F)nc2)CCCN1c1nc(Nc2cc(C3CC3)[nH]n2)c2cccn2n1
OUT: inactive

IN: Kindly provide the recorded test outcome for the following molecule: N=C1SC(=Cc2ccc(-c3ccc4c(c3)C(=O)NC4=O)o2)C(=O)N1c1ccc(Br)cc1
OUT: inactive

The measured values listed here are drawn from PubChem BioAssay (NCATS).
